# Experiment notes: qHTS of pediatric cancer cell lines to identify multiple opportunities for drug repurposing: Primary screen for SK-N-MC cells (AID 1347093)
# Condition context: SK-N-MC viability, CellTiter-Glo luminescence, 48 h; series mostly up to 46 µM
Inconclusive results are not listed. Calls of active or inactive are those of the source. The call rests on the fitted dose curve; in most records, active means well fitted cell-killing curve with a large enough effect; inconclusive means small, poorly fitted or top-dose-only effect; inactive means no such curve, though single readings can be large or run the other way.
Please reply with one of these outcomes: active, inactive

Req: Lab log entry: C[N+]1(C)[C@@H]2CC(OC(=O)[C@H](CO)c3ccccc3)C[C@H]1[C@@H]1O[C@@H]12 (stereo not given in full) — outcome as called in the assay?
Resp: inactive

Req: Lab log entry: CC(N)C(=O)OC(C)(C)Cc1ccc(Cl)cc1 (stereo not given) — outcome as called in the assay?
Resp: inactive

Req: Lab log entry: "c1ccc2sc(SSc3nc4ccccc4s3)nc2c1" — outcome as called in the assay?
Resp: inactive

Req: Lab log entry: "CN(C)CCn1nnnc1SCC1=C(C(=O)O)N2C(=O)[C@@H](NC(=O)Cc3csc(N)n3)[C@H]2SC1" — outcome as called in the assay?
Resp: inactive

Req: Lab log entry: "Cc1nc2ccccc2n1Cc1ccc(Cl)cc1" — outcome as called in the assay?
Resp: active

Req: Lab log entry: "c1ccc(CCNc2nc(-c3ccccc3)cs2)cc1" — outcome as called in the assay?
Resp: inactive

Req: Lab log entry: CCC1C(=O)OCC1Cc1cncn1C (stereo not given) — outcome as called in the assay?
Resp: inactive

Req: Lab log entry: "Nc1cc(-c2ccncc2)c[nH]c1=O" — outcome as called in the assay?
Resp: inactive

Req: Lab log entry: CC(C(=O)O)c1ccc(C(=O)c2cccs2)cc1 (stereo not given) — outcome as called in the assay?
Resp: inactive

Req: Lab log entry: "c1ccc2sc(SN3CCOCC3)nc2c1" — outcome as called in the assay?
Resp: inactive

Req: Lab log entry: "NCCO" — outcome as called in the assay?
Resp: inactive

Req: Lab log entry: "COc1cccc2c1C(=O)c1c(O)c3c(c(O)c1C2=O)C[C@@](O)(C(=O)CO)C[C@@H]3O[C@H]1C[C@H](N)[C@H](O[C@@H]2CCCCO2)[C@H](C)O1" — outcome as called in the assay?
Resp: active

Req: Lab log entry: "C=CCCCCCCCCC(=O)O" — outcome as called in the assay?
Resp: inactive

Req: Lab log entry: "O=C(O)/C=C\C(=O)O" — outcome as called in the assay?
Resp: inactive

Req: Lab log entry: "CNC(=O)c1c(I)c(NC(=O)CCCCC(=O)Nc2c(I)c(C(=O)O)c(I)c(C(=O)NC)c2I)c(I)c(C(=O)O)c1I" — outcome as called in the assay?
Resp: inactive
